# ASSAYED_TARGET: T1, CRBN, Q96SW2;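 note: pooled lentiviral library of zinc finger degron-EGFP fusions in mCherry-positive Jurkat cells, FACS-sorted after compound exposure, with degron abundance counted by next-generation sequencing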
# T1 chain: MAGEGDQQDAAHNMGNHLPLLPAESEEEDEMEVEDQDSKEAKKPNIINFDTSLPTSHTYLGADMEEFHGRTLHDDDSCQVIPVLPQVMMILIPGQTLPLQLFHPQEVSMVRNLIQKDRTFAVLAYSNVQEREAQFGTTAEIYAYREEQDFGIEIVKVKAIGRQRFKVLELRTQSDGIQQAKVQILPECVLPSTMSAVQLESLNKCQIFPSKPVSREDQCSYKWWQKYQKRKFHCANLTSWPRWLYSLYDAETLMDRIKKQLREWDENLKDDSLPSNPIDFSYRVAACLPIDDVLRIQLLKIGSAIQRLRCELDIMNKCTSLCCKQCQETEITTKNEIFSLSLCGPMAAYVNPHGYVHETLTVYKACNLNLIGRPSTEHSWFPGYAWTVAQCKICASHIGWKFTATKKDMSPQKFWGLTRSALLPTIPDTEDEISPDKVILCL
# TEST_DESCRIPTION: log2 fold change of degron read counts, EGFP-low vs EGFP+ sorted cells (limma voom), compound-induced degradation; higher = more compound-induced degradation of the degron-EGFP fusion; degrons are variants of IKZF1/3 zinc finger 2; compound dose not given here
# PARTICULARS: Jurkat; 18 h; compound: compound 19 (5-tert-butyl-thalidomide)
Over roughly 8,300 sequences, “log2 fold change of degron read counts, EGFP-low vs EGFP+ sorted cells (limma voom), compound-induced degradation” has its median near -1.1; the highest 2% begin near 3.2. The sample as a whole holds a higher share of the highest values than the screen did.
What log2 fold change of degron read counts was measured for each of the following?
Answer using only a numeral; do not append any unit.

Prompt: Which log2 fold change of degron read counts value is on record for FSCNVCGAEFTQKGNLLRHIKL [46F_47S_49N_50V_52G_53A_54E_55F_67L_, Q9UKT9] ?
Completion: -1.82

Prompt: Then what about the sequence LTCPICGFQCTQKGNLLRHIKL [46L_47T_49P_50I_52G_53F_54Q_55C_67L_, Q9UKT9] ?
Completion: 0.773

Prompt: Check FICEICGHSFTQKGNLLRHIKL [46F_47I_49E_50I_52G_53H_54S_55F_67L_, Q9UKT9] too.
Completion: -3.27

Prompt: Moving on to the next sequence: FECPVCGANFTQKGNLLRHIKL [46F_47E_49P_50V_52G_53A_54N_55F_67L_, Q9UKT9]
Completion: -0.535

Prompt: Same question for FTCNQCGHIFTQKGNLLRHIKL [46F_47T_49N_50Q_52G_53H_54I_55F_67L_, Q9UKT9] please.
Completion: -3.22

Prompt: Also check FWCEICGRHFTQKGNLLRHIKL [46F_47W_49E_50I_52G_53R_54H_55F_67L_, Q9UKT9]
Completion: 0.466

Prompt: Please give the result for FVCPVCGANFTQKGNLLRHIKL [46F_47V_49P_50V_52G_53A_54N_55F_67L_, Q9UKT9] too.
Completion: -0.407

Prompt: Again, but for FRCPICGAKFTQKGNLLRHIKL [46F_47R_49P_50I_52G_53A_54K_55F_67L_, Q9UKT9]
Completion: -0.704

Prompt: Would you kindly repeat that for FYCNICGANFTQKGNLLRHIKL [46F_47Y_49N_50I_52G_53A_54N_55F_67L_, Q9UKT9] ?
Completion: 1.69

Prompt: Now try LMCPICGFQCTQKGNLLRHIKL [46L_47M_49P_50I_52G_53F_54Q_55C_67L_, Q9UKT9] .
Completion: 0.282

Prompt: Same question for FWCPVCGANFTQKGNLLRHIKL [46F_47W_49P_50V_52G_53A_54N_55F_67L_, Q9UKT9] please.
Completion: 3.05

Prompt: Moving on to the next sequence: FSCPVCGANFTQKGNLLRHIKL [46F_47S_49P_50V_52G_53A_54N_55F_67L_, Q9UKT9]
Completion: 1.92

Prompt: // next record FNCPICGAQFTQKGNLLRHIKL [46F_47N_49P_50I_52G_53A_54Q_55F_67L_, Q9UKT9]
Completion: 2.48

Prompt: Same again, this time with FMCPVCGANFTQKGNLLRHIKL [46F_47M_49P_50V_52G_53A_54N_55F_67L_, Q9UKT9]
Completion: -0.564

Prompt: Follow-up entry: LRCPICGFQCTQKGNLLRHIKL [46L_47R_49P_50I_52G_53F_54Q_55C_67L_, Q9UKT9]
Completion: 0.722

Prompt: How about this sequence: LFCPICGFQCTQKGNLLRHIKL [46L_47F_49P_50I_52G_53F_54Q_55C_67L_, Q9UKT9]
Completion: 3.36

Prompt: How about this sequence: FHCPICGAKFTQKGNLLRHIKL [46F_47H_49P_50I_52G_53A_54K_55F_67L_, Q9UKT9]
Completion: 2.6

Prompt: What do you have for LYCPICGFQCTQKGNLLRHIKL [46L_47Y_49P_50I_52G_53F_54Q_55C_67L_, Q9UKT9] ?
Completion: 3.45

Prompt: Can you handle LFCNQCGFYCTQKGNLLRHIKL [46L_47F_49N_50Q_52G_53F_54Y_55C_67L_, Q9UKT9] next?
Completion: -0.734

Prompt: Next sequence up: FQCNQCGHEFTQKGNLLRHIKL [46F_47Q_49N_50Q_52G_53H_54E_55F_67L_, Q9UKT9]
Completion: -3.09

Prompt: How about FECNICGANFTQKGNLLRHIKL [46F_47E_49N_50I_52G_53A_54N_55F_67L_, Q9UKT9] ?
Completion: -1.93

Prompt: Next: LQCPICGFQCTQKGNLLRHIKL [46L_47Q_49P_50I_52G_53F_54Q_55C_67L_, Q9UKT9]
Completion: 1.01

Prompt: Another sequence to check: LQCEICGFFCTQKGNLLRHIKL [46L_47Q_49E_50I_52G_53F_54F_55C_67L_, Q9UKT9]
Completion: -0.636

Prompt: Same thing, different sequence: LQCNQCGFNCTQKGNLLRHIKL [46L_47Q_49N_50Q_52G_53F_54N_55C_67L_, Q9UKT9]
Completion: -2.28

Prompt: Try the sequence FNCPVCGANFTQKGNLLRHIKL [46F_47N_49P_50V_52G_53A_54N_55F_67L_, Q9UKT9]
Completion: 1.79

Prompt: What about FMCPICGAWFTQKGNLLRHIKL [46F_47M_49P_50I_52G_53A_54W_55F_67L_, Q9UKT9] ?
Completion: -1.26

Prompt: What do you get for FDCNICGARFTQKGNLLRHIKL [46F_47D_49N_50I_52G_53A_54R_55F_67L_, Q9UKT9] ?
Completion: 1.3

Prompt: Please give the result for FHCPICGATFTQKGNLLRHIKL [46F_47H_49P_50I_52G_53A_54T_55F_67L_, Q9UKT9] too.
Completion: 1.64

Prompt: What do we get for LICPICGFQCTQKGNLLRHIKL [46L_47I_49P_50I_52G_53F_54Q_55C_67L_, Q9UKT9] ?
Completion: 0.317

Ref: the supplement of paper PMC12645437
